Recorded values, source paper PMC4104028.

B1: FLAG-Atg16L1 full-length (FL) [mouse] / GFP-WIPI2b [not stated] (parent complex)
chain 1: MSSGLRAADFPRWKRHIAEELRRRDRLQRQAFEEIILQYTKLLEKSDLHSVLTQKLQAEKHDMPNRHEISPGHDGAWNDSQLQEMAQLRIKHQEELTELHKKRGELAQLVIDLNNQMQQKDKEIQMNEAKISEYLQTISDLETNCLDLRTKLQDLEVANQTLKDEYDALQITFTALEEKLRKTTEENQELVTRWMAEKAQEANRLNAENEKDSRRRQARLQKELAEAAKEPLPVEQDDDIEVIVDETSDHTEETSPVRAVSRAATKRLSQPAGGLLDSITNIFGLSESPLLGHHSSDAARRRSVSSIPVPQDIMDTHPASGKDVRVPTTASYVFDAHDGEVNAVQFSPGSRLLATGGMDRRVKLWEAFGDKCEFKGSLSGSNAGITSIEFDSAGAYLLAASNDFASRIWTVDDYRLRHTLTGHSGKVLSAKFLLDNARIVSGSHDRTLKLWDLRSKVCIKTVFAGSSCNDIVCTEQCVMSGHFDKKIRFWDIRSESVVREMELLGKITALDLNPERTELLSCSRDDLLKVIDLRTNAVKQTFSAPGFKCGSDWTRVVFSPDGSYVAAGSAEGSLYVWSVLTGKVEKVLSKQHSSSINAVAWAPSGLHVVSVDKGSRAVLWAQP
chain 2: MNLASQSGEAGAGQLLFANFNQDNTSLAVGSKSGYKFFSLSSVDKLEQIYECTDTEDVCIVERLFSSSLVAIVSLKAPRKLKVCHFKKGTEICNYSYSNTILAVKLNRQRLIVCLEESLYIHNIRDMKVLHTIRETPPNPAGLCALSINNDNCYLAYPGSATIGEVQVFDTINLRAANMIPAHDSPLAALAFDASGTKLATASEKGTVIRVFSIPEGQKLFEFRRGVKRCVSICSLAFSMDGMFLSASSNTETVHIFKLETVKEKPPEEPTTWTGYFGKVLMASTSYLPSQVTEMFNQGRAFATVRLPFCGHKNICSLATIQKIPRLLVGAADGYLYMYNLDPQEGGECALMKQHRLDGSLETTNEILDSASHDCPLVTQTYGAAAGKGTYVPSSPTRLAYTDDLGAVGGACLEDEASALRLDEDSEHPPMILRTD

variants of: B1; experiment: GFP-Trap co-immunoprecipitation from mixed lysates, immunoblot quantification; parent: 1; read off a plot
Each item that follows carries a reported ratio to parent.

Recorded ratio to parent, per entry:
chain 1 E230R | ~0.02
chain 1 D237R | ~1.7
chain 1 E241R | ~1.1
chain 1 D212R | ~0.63
chain 1 D239R | ~0.8
chain 1 D238R | ~1.3

## Task # return recorded ratio to parent for input chain 1 E208R
## Result ~0.67

## Task # return recorded ratio to parent for input chain 1 E235R
## Result ~1.2

## Task # return recorded ratio to parent for input chain 1 E226R
## Result ~0.02
